Experimental Endpoint: melting point

Cc1cccc(C2CC2)c1Oc1nnc(Cl)cc1OC(=O)c1cc(Cl)ccc1Cl [Compound No. 3100]; 128 to 130 °C
CC(C)=Cc1ccccc1Oc1nnc(Cl)cc1O [Compound No. 2540]; 149 to 152 °C

q: Quick one: melting point for Oc1cc(Cl)nnc1Oc1ccc(Cl)cc1 [Compound No. 427] ?
a: 226 to 231 °C

---

Experimental Endpoint: melting point

Oc1cc(Cl)nnc1Oc1ccccc1C1(F)CC1 [Compound No. 140]; 152 to 157 °C

q: Quick one: melting point for CCCS(=O)(=O)Oc1cc(Cl)nnc1Oc1c(C)cccc1C1CC1 [Compound No. 2051] ?
a: 70.5 to 71.5 °C

q: Quick one: melting point for CCC(C)c1ccccc1Oc1nnc(Cl)cc1OS(=O)(=O)c1ccc(C)cc1 (stereo not drawn) [Compound No. 2223] ?
a: 65 to 66 °C

q: Quick one: melting point for Oc1cc(Cl)nnc1Oc1cccc2sccc12 [Compound No. 534] ?
a: 181 to 183 °C

q: Quick one: melting point for Cc1nc2cccc(Oc3nnc(Cl)cc3O)c2o1 [Compound No. 549] ?
a: 197 to 202 °C

q: Quick one: melting point for CC(C)Cc1ccccc1Oc1nnc(Cl)cc1O [Compound No. 134] ?
a: 151.5 to 152.5 °C

q: Quick one: melting point for Cc1ccc(Br)c(Oc2nnc(Cl)cc2O)c1C [Compound No. 1058] ?
a: 263 to 268 °C

q: Quick one: melting point for CC1(C)Cc2cccc(Oc3nnc(Cl)cc3O)c2O1 [Compound No. 540] ?
a: 228 to 229.5 °C

q: Quick one: melting point for Cc1cc(C)c(C)c(Oc2nnc(Cl)cc2O)c1C [Compound No. 1125] ?
a: 278 to 283 °C

---

Quick reference for Herbicidal effects Scirpus joncoides among some compounds
Tested on: Scirpus joncoides
Protocol Notes: Test Example 1: herbicidal effects, paddy-field pot test
Assay type: in vivo
Test Conditions: chemical dosage 25 g/a; wettable powder applied 3 days after transplanting; judged after 25 days

CCc1ccccc1Oc1nnc(Cl)cc1O [Example 55]; 4 (Growth inhibition rate; 71 to 90%)
CC(C)c1cccc(Br)c1Oc1nnc(Cl)cc1O [Example 19]; 4 (Growth inhibition rate; 71 to 90%)
Cc1cc(Oc2nnc(Cl)cc2O)cc(C(C)C)c1 [Example 282]; 4 (Growth inhibition rate; 71 to 90%)
CSc1ccccc1Oc1nnc(Cl)cc1O [Example 129]; 4 (Growth inhibition rate; 71 to 90%)
Oc1cc(Cl)nnc1Oc1ccccc1F [Example 49]; 4 (Growth inhibition rate; 71 to 90%)

q: Quick one: Herbicidal effects Scirpus joncoides for CC(C)(C)c1ccccc1Oc1nnc(Cl)cc1O [Example 61] ?
a: 5 (Growth inhibition rate; 91 to 100%)

q: Quick one: Herbicidal effects Scirpus joncoides for Oc1cc(Cl)nnc1Oc1c(Cl)cccc1Cl [Example 240] ?
a: 4 (Growth inhibition rate; 71 to 90%)

q: Quick one: Herbicidal effects Scirpus joncoides for C=CCc1ccccc1Oc1nnc(Cl)cc1OC [Comparative compound, reference compound] ?
a: 0 (Growth inhibition rate; 0 to 10%)

q: Quick one: Herbicidal effects Scirpus joncoides for CCCc1c(C)cc(C)cc1Oc1nnc(Cl)cc1O [Example 287] ?
a: 5 (Growth inhibition rate; 91 to 100%)

q: Quick one: Herbicidal effects Scirpus joncoides for Cc1cccc(Cl)c1Oc1nnc(Cl)cc1O [Example 242] ?
a: 4 (Growth inhibition rate; 71 to 90%)

q: Quick one: Herbicidal effects Scirpus joncoides for COc1ccccc1Oc1nnc(Cl)cc1O [Example 121] ?
a: 4 (Growth inhibition rate; 71 to 90%)

q: Quick one: Herbicidal effects Scirpus joncoides for Oc1cc(Cl)nnc1Oc1ccccc1Br [Example 51] ?
a: 5 (Growth inhibition rate; 91 to 100%)

---

Quick reference for Herbicidal effects Barnyard grass among some compounds
Test system: barnyardgrass (Echinochloa oryzicola Vasing.)
Protocol Notes: Test Example 4: herbicidal effects of mixed wettable powder, paddy-field pot test
Assay type: in vivo
Test Conditions: derivative 5 g/a, no second compound; after 25 days

The following compounds have reported results that may help.
Oc1cc(Cl)nnc1Oc1cccc2c1CCC2; 2 (Growth inhibition rate; 36 to 55%)
Oc1cc(Cl)nnc1Oc1c(Cl)cccc1C1CC1; 3 (Growth inhibition rate; 56 to 75%)
COc1ccc(C)cc1Oc1nnc(Cl)cc1O; 0 (Growth-inhibition rate; 0 to 15%)
N#CC1CC1c1ccccc1Oc1nnc(Cl)cc1O (stereo not drawn); 3 (Growth inhibition rate; 56 to 75%)

q: // lookup Herbicidal effects Barnyard grass | system=barnyardgrass (Echinochloa oryzicola Vasing.) | key= `Cc1cc(C)c(C2CC2)c(Oc2nnc(Cl)cc2O)c1`
a: 0 (Growth-inhibition rate; 0 to 15%)

q: // lookup Herbicidal effects Barnyard grass | system=barnyardgrass (Echinochloa oryzicola Vasing.) | key= `Cc1ccccc1Oc1nnc(Cl)cc1O`
a: 2 (Growth inhibition rate; 36 to 55%)

q: // lookup Herbicidal effects Barnyard grass | system=barnyardgrass (Echinochloa oryzicola Vasing.) | key= `Cc1cccc(Br)c1Oc1nnc(Cl)cc1O`
a: 1 (Growth inhibition rate; 16 to 35%)

q: // lookup Herbicidal effects Barnyard grass | system=barnyardgrass (Echinochloa oryzicola Vasing.) | key= `Oc1cc(Cl)nnc1Oc1ccccc1C1CC1`
a: 1 (Growth inhibition rate; 16 to 35%)

q: // lookup Herbicidal effects Barnyard grass | system=barnyardgrass (Echinochloa oryzicola Vasing.) | key= `Cc1cccc(C2CC2)c1Oc1nnc(Cl)cc1O`
a: 2 (Growth inhibition rate; 36 to 55%)

---

Tested on: transplanted paddy-field rice
Protocol Notes: Test Example 1: crop injury against transplanted paddy-field rice
Type: in vivo
Test Conditions: chemical dosage 25 g/a; wettable powder applied 3 days after transplanting; judged after 25 days
Quick reference for Crop injury against transplanted rice among some molecules

CC(C)c1cccc(Cl)c1Oc1nnc(Cl)cc1O; 2 (Growth inhibition rate; 31 to 50%)
Cc1cc(C)cc(Oc2nnc(Cl)cc2O)c1; 0 (Growth inhibition rate; 0 to 10%)
Cc1cccc(Cl)c1Oc1nnc(Cl)cc1O; 0 (Growth inhibition rate; 0 to 10%)
CC(C)c1ccccc1Oc1nnc(Cl)cc1O; 0 (Growth inhibition rate; 0 to 10%)
Cc1cccc(C(C)(C)C)c1Oc1nnc(Cl)cc1O; 2 (Growth inhibition rate; 31 to 50%)

q: Quick one: Crop injury against transplanted rice for `CC(C)(C)c1ccccc1Oc1nnc(Cl)cc1O` ?
a: 0 (Growth inhibition rate; 0 to 10%)

q: Quick one: Crop injury against transplanted rice for `CCCc1cccc(F)c1Oc1nnc(Cl)cc1O` ?
a: 0 (Growth inhibition rate; 0 to 10%)

---

System: barnyardgrass (Echinochloa oryzicola Vasing.)
Protocol Notes: Test Example 1: herbicidal effects, paddy-field pot test
Assay type: in vivo
Test Conditions: chemical dosage 10 g/a; wettable powder applied 3 days after transplanting; judged after 25 days
Experimental Endpoint: Herbicidal effects Barnyard grass

The following compounds have reported results that may help.
CC(=O)Oc1cc(Cl)nnc1Oc1ccccc1C1CC1 [Example 323]; 3 (Growth inhibition rate; 51 to 70%)
Cc1ccc2c(c1Oc1nnc(Cl)cc1O)CCC2 [Example 305]; 1 (Growth inhibition rate; 11 to 30%)
Cc1ccccc1Oc1nnc(Br)cc1O [Example 34]; 1 (Growth inhibition rate; 11 to 30%)
O=[N+]([O-])c1ccc(S(=O)(=O)Oc2cc(Cl)nnc2Oc2ccccc2C2CC2)cc1 [Example 394]; 2 (Growth inhibition rate; 31 to 50%)
Oc1cc(Cl)nnc1Oc1ccccc1OC(F)(F)F [Example 125]; 1 (Growth inhibition rate; 11 to 30%)

Would you kindly look at the next entry?
q: // lookup Herbicidal effects Barnyard grass | system=barnyardgrass (Echinochloa oryzicola Vasing.) | key= CC(C)c1cccc(I)c1Oc1nnc(Cl)cc1O [Example 258]
a: 3 (Growth inhibition rate; 51 to 70%)

---

Quick reference for Herbicidal effects Barnyard grass among some compounds
Test system: barnyardgrass (Echinochloa oryzicola Vasing.)
Protocol Notes: Test Example 1: herbicidal effects, paddy-field pot test
Format: in vivo
Test Conditions: chemical dosage 10 g/a; wettable powder applied 3 days after transplanting; judged after 25 days

The following compounds have reported results that may help.
CCc1cccc(C)c1Oc1nnc(Cl)cc1O; 2 (Growth inhibition rate; 31 to 50%)
Cc1cc(C)c(Br)c(Oc2nnc(Cl)cc2O)c1C; 2 (Growth inhibition rate; 31 to 50%)
Cc1ccc2ccoc2c1Oc1nnc(Cl)cc1O; 4 (Growth inhibition rate; 71 to 90%)

q: Quick one: Herbicidal effects Barnyard grass for `Oc1cc(Cl)nnc1Oc1cccc2ccoc12` ?
a: 4 (Growth inhibition rate; 71 to 90%)

q: Quick one: Herbicidal effects Barnyard grass for `Cc1ccc(C)c(Oc2nnc(Cl)cc2O)c1Br` ?
a: 0 (Growth inhibition rate; 0 to 10%)

q: Quick one: Herbicidal effects Barnyard grass for `CC(C)Oc1ccccc1Oc1nnc(Cl)cc1O` ?
a: 0 (Growth inhibition rate; 0 to 10%)

---

Quick reference for Herbicidal effects Barnyard-grass among some compounds
Test system: barnyardgrass
Protocol Notes: Test Example 2: herbicidal effects (soil treatment)
Type: in vivo
Test Conditions: dosage 5 kg/a; soil treatment the day after seeding; judged after 21 days

The following compounds have reported results that may help.
Cc1ccc2ccoc2c1Oc1nnc(Cl)cc1O; 5 (Growth inhibition rate; 91 to 100%)
Oc1cc(Cl)nnc1Oc1c(Br)ccc2ccoc12; 5 (Growth inhibition rate; 91 to 100%)
Oc1cc(Cl)nnc1Oc1c(Cl)cccc1C1CC1; 3 (Growth inhibition rate; 51 to 70%)
Oc1cc(Cl)nnc1Oc1c(F)cccc1C1CC1; 3 (Growth inhibition rate; 51 to 70%)

q: // lookup Herbicidal effects Barnyard-grass | system=barnyardgrass | key= `Cc1cccc(Br)c1Oc1nnc(Cl)cc1O`
a: 4 (Growth inhibition rate; 71 to 90%)

q: // lookup Herbicidal effects Barnyard-grass | system=barnyardgrass | key= `Cc1cccc(I)c1Oc1nnc(Cl)cc1O`
a: 3 (Growth inhibition rate; 51 to 70%)

q: // lookup Herbicidal effects Barnyard-grass | system=barnyardgrass | key= `Oc1cc(Cl)nnc1Oc1cccc2c1CCC2`
a: 5 (Growth inhibition rate; 91 to 100%)
